# subject_of_test: SHP2 (Homo sapiens)
# Sequence (Q06124 whole entry): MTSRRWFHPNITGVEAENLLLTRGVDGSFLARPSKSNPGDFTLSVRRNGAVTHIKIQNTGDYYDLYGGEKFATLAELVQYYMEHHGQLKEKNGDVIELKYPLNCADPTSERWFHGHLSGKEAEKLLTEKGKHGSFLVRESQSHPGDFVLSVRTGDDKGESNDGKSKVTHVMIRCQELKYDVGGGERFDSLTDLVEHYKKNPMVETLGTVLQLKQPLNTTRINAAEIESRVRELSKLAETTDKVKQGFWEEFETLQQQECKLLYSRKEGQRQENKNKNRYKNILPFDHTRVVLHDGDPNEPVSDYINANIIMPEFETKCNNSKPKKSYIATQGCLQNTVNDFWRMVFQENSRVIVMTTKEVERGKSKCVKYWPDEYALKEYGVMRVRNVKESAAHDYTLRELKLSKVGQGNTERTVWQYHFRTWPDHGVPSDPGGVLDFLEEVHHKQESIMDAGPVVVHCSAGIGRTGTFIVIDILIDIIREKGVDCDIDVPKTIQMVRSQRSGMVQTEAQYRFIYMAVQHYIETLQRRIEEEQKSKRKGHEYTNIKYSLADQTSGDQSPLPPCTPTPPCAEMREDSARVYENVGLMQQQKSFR
# protocol: Inhibition of human recombinant tyrosine phosphatase SHP2 (DiFMUP fluorescence)
Provide the recorded IC50 for the entries that follow.
One number for each entry, in nM.

Example cases with answers are listed next.
[O]=[V]1[O]C(c2ccc(Cl)cc2)=NN=Cc2cc(Br)ccc2[O]1.c1cnc2c(c1)ccc1cccnc12 [VC050, [VO(L11)(phen)]]
273
O=C(NN=Cc1cc(Br)ccc1[O-])c1ccc([N+](=O)[O-])cc1.O=[N+]([O-])c1ccc(C([O-])=NN=Cc2cc(Br)ccc2[O-])cc1.[V+3] [VC068, [V(L13)(HL13)]]
235
Cc1occc(=O)c1[O-].Cc1occc(=O)c1[O-].[O]=[V+2] [BMOV, bis(maltolato)oxidovanadium(IV), reference compound]
8
O=S(=O)([O-])[O-].[O]=[V+2] [VOSO4, reference compound]
13

The compound CC(CC(=S)Nc1ccccc1)=NC(Cc1ccccc1)C(=O)[O][V](=[O])([Cl])[Cl] (centres unmarked) [VC059, [VOCl2(L2)]·0.5Et2O·1.5HCl] showed IC50 equal to 13

====

# subject_of_test: PTP1B (Homo sapiens, UniProt P18031)
# Construct: purchased Sigma-Aldrich
# Sequence (P18031 1-435): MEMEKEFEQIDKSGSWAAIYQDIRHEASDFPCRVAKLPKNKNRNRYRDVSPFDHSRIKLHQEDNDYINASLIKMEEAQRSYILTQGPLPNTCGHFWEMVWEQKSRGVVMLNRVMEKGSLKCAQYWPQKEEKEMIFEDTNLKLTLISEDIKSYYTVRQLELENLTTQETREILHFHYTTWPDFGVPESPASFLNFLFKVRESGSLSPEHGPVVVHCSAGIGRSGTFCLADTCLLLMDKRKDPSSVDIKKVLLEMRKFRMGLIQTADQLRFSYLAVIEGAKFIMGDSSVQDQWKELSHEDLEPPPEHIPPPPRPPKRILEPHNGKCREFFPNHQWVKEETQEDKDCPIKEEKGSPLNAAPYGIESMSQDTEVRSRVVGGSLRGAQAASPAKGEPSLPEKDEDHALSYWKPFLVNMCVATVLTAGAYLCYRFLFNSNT
# protocol: Inhibition of human recombinant tyrosine phosphatase PTP1B (DiFMUP fluorescence)
# Format: biochemical
# measurement_setup: 1 µM; control solvent only; SD did not exceed 6%
value_type: Inhibition of PTP1B, percentage of inhibition of the control (%)
Numbers only, in %.

Record excerpt, results attached:
O.[O]=[V]1[O]C(c2ccc(O)cc2)=NN=Cc2cc(Br)ccc2[O]1.c1cnc2c(c1)ccc1cccnc12 [VC046, [VO(L9)(phen)]⋅2H2O]
34
CC(CC(=S)Nc1ccccc1)=NC(Cc1c[nH]c2ccccc12)C(=O)[O][V](=[O])([Cl])[Cl] (stereo not drawn) [VC054, [VOCl2(L1)]·1.5Et2O ·6.5HCl]
78

Here is the next item to consider.
For reference, reported Inhibition of PTP1B, percentage of inhibition of the control for C1CCOC1.CSCCC1C(=O)[O][V](=[O])([Cl])([Cl])[N]1C(C)=CC(=S)Nc1ccccc1.Cl (stereo not drawn) [VC073, [VOCl2(L4)]·1.5THF·3HCl] stands at 74

====

# subject_of_test: PTP1B (Homo sapiens)
# Construct: purchased Sigma-Aldrich
# protocol: Inhibition of human recombinant tyrosine phosphatase PTP1B (DiFMUP fluorescence)
# Format: biochemical
# measurement_setup: 1 µM; control solvent only; SD did not exceed 6%
Hi, to clarify the labels: t covers Inhibition of PTP1B, percentage of inhibition of the control from 40% upward, f covers anything below 40%.

O=C(NN=Cc1cc(Br)ccc1[O][V]1[O]C(c2ccccc2O)=NN=Cc2cc(Br)ccc2[O]1)c1ccccc1O [VC029, [V(L7)(HL7)]]
f
O=C(NN=Cc1cc(Br)ccc1[O][V]1[O]C(c2cc3ccccc3cc2O)=NN=Cc2cc(Br)ccc2[O]1)c1cc2ccccc2cc1O [VC067, [V(L12)(HL12)]]
t
Cc1occc(=O)c1[O-].Cc1occc(=O)c1[O-].[O]=[V+2] [BMOV, bis(maltolato)oxidovanadium(IV), reference compound]
t
COc1ccc(C(=O)NN=Cc2cc(Br)ccc2[O][V]2[O]C(c3ccc(OC)cc3)=NN=Cc3cc(Br)ccc3[O]2)cc1 [VC055, [V(L11)(HL11)]]
f
O=S(=O)([O-])[O-].[O]=[V+2] [VOSO4, reference compound]
t
CC(CC(=S)Nc1ccccc1)=NC(CC(C)C)C(=O)[O][V](=[O])([Cl])[Cl] (stereo not shown) [VC070, [VOCl2(L3)]·0.5Et2O·3HCl]
t
[O]=[V]1[O]C(c2ccc(Cl)cc2)=NN=Cc2cc(Br)ccc2[O]1.c1cnc2c(c1)ccc1cccnc12 [VC050, [VO(L11)(phen)]]
f
CC(C)(C)c1ccc(C2=NN=Cc3cc(Br)ccc3[O][V](=[O])[O]2)cc1.O.c1cnc2c(c1)ccc1cccnc12 [VC048, [VO(L10)(phen)]⋅0.5H2O]
f

Please find the next molecule below.
Incoming: Entry CCC(C)C(N=C(C)CC(=S)Nc1ccccc1)C(=O)[O][V](=[O])([Cl])[Cl] (racemic) [VC109, [VOCl2(L5)]·3HCl] : is its Inhibition of PTP1B, percentage of inhibition of the control no less than 40%?
Outgoing: t
